Exercise: state measured pKi for each of the molecules provided.
pKi: −log10 of the molar value.

query: For human NEP (Homo sapiens (Human), UniProt P08473), give pKi of the listed molecule: O=C(NC(Cc1ccc(-c2ccccc2)cc1)C[C@@H](CO)C(=O)O)c1cc(F)c2nn[nH]c2c1 (some centres unmarked)
result: ≥ 9.00

query: For human NEP (Homo sapiens (Human), UniProt P08473), give pKi of the listed molecule: "C[C@@](CO)(C[C@@H](Cc1ccc(-c2ccccc2F)cc1)NC(=O)c1cn(O)nn1)C(=O)O"
result: ≥ 9.00

query: For human NEP (Homo sapiens (Human), UniProt P08473), give pKi of the listed molecule: "C[C@@](CO)(C[C@@H](Cc1ccc(-c2ccccc2F)cc1)NC(=O)c1cnn[nH]1)C(=O)O"
result: ≥ 9.00

query: For human NEP (Homo sapiens (Human), UniProt P08473), give pKi of the listed molecule: "CN(C)C(=O)c1cc(C(=O)N[C@H](Cc2ccc(-c3ccccc3)cc2)C[C@@H](CO)C(=O)O)[nH]n1"
result: 8.00 to 8.90

query: For human NEP (Homo sapiens (Human), UniProt P08473), give pKi of the listed molecule: "C[C@](CO)(C[C@@H](Cc1ccc(-c2ccccc2)cc1)NC(=O)c1cnn[nH]1)C(=O)O"
result: 7.00 to 7.90

query: For human NEP (Homo sapiens (Human), UniProt P08473), give pKi of the listed molecule: "O=C(N[C@H](Cc1ccc(-c2ccccc2F)cc1)C[C@@H](CO)C(=O)O)c1nc(Cl)n[nH]1"
result: ≥ 9.00

query: For human NEP (Homo sapiens (Human), UniProt P08473), give pKi of the listed molecule: "C[C@@](CO)(C[C@@H](Cc1ccc(-c2ccccc2)cc1)NC(=O)c1nc(O)n[nH]1)C(=O)O"
result: 7.00 to 7.90

query: For human NEP (Homo sapiens (Human), UniProt P08473), give pKi of the listed molecule: "C[C@@](CO)(C[C@@H](Cc1ccc(-c2ccccc2)cc1)NC(=O)c1nc(Cl)n[nH]1)C(=O)O"
result: 8.00 to 8.90

query: For human NEP (Homo sapiens (Human), UniProt P08473), give pKi of the listed molecule: "C[C@@](CO)(C[C@@H](Cc1ccc(-c2ccccc2)cc1)NC(=O)c1cc(O)n[nH]1)C(=O)O"
result: 8.00 to 8.90

query: For human NEP (Homo sapiens (Human), UniProt P08473), give pKi of the listed molecule: "CC(C)(c1ccc(-c2ccccc2)cc1)[C@H](C[C@@H](CO)C(=O)O)NC(=O)c1cnn[nH]1"
result: ≥ 9.00

query: For human NEP (Homo sapiens (Human), UniProt P08473), give pKi of the listed molecule: "O=C(N[C@H](Cc1ccc(-c2ccccc2)cc1)C[C@@H](CO)C(=O)O)c1cc(C(=O)N2CCCC2)n[nH]1"
result: ≥ 9.00

query: For human NEP (Homo sapiens (Human), UniProt P08473), give pKi of the listed molecule: "C[C@@](CO)(C[C@@H](Cc1ccc(-c2ccccc2F)cc1)NC(=O)c1coc(=O)[nH]1)C(=O)O"
result: ≥ 9.00

query: For human NEP (Homo sapiens (Human), UniProt P08473), give pKi of the listed molecule: "C[C@@](CO)(C[C@@H](Cc1ccc(-c2ccc(F)cc2)cc1)NC(=O)c1cnn[nH]1)C(=O)O"
result: 7.00 to 7.90

query: For human NEP (Homo sapiens (Human), UniProt P08473), give pKi of the listed molecule: "O=C(N[C@H](Cc1ccc(-c2ccccc2)cc1)C[C@H](CO)C(=O)O)c1cnn[nH]1"
result: 8.00 to 8.90

From: patent US10130642B2
